- system: NADPH oxidase 5 (Homo sapiens)
- protocolNotes: NOX5-dependent H2O2 signal modulators, primary screen, NOX inhibitor project, cell-based, HEK293-NOX5, Amplex Red fluorescence (AID 1161)
- experimentalSetup: HEK293-NOX5, ionomycin, 45 min, higher = more signal

[
  {
    "compound": "[N-]=[N+]=NCc1ccccc1C[C@]1(C(=O)NCC(O)CO)N=C(c2ccc(OCCCO)cc2)O[C@H]1c1ccccc1CN=[N+]=[N-] (some centres undefined)",
    "system": "NADPH oxidase 5 (Homo sapiens)",
    "z-score": -1.41
  },
  {
    "compound": "C[C@H]1ON(c2ccc(C(=O)OC(C)(C)C)cc2)[C@@H](c2ccc(O)cc2)[C@@H]1C(=O)N1C(=O)OC[C@@H]1c1ccccc1",
    "system": "NADPH oxidase 5 (Homo sapiens)",
    "z-score": 0.718
  },
  {
    "compound": "O=C1c2ccccc2[C@](Cc2ccccc2I)(C(=O)NCc2ccccc2)[C@H](c2ccc(CO)cc2)N1C1CCCCC1",
    "system": "NADPH oxidase 5 (Homo sapiens)",
    "z-score": 1.35
  },
  {
    "compound": "C=CC[C@H](OC(=O)Nc1ccc(OC)cc1)c1ccc(O)c2ccccc12",
    "system": "NADPH oxidase 5 (Homo sapiens)",
    "z-score": -0.343
  },
  {
    "compound": "CCOC(=O)C[C@H]1[C@H](OC(=O)c2ccc(C(=O)c3ccccc3)cc2)[C@@H](NC(=O)c2ccc3ccccc3c2)c2cc(OCCCO)ccc2N1C(=O)c1ccccc1",
    "system": "NADPH oxidase 5 (Homo sapiens)",
    "z-score": 1.06
  },
  {
    "compound": "CC(C)N1CC=CC23O[C@@H]4C=CCCOC(=O)C4[C@H]2C(=O)N(CCO)[C@@H]3C1=O (some centres undefined)",
    "system": "NADPH oxidase 5 (Homo sapiens)",
    "z-score": 1.54
  },
  {
    "compound": "COC(=O)[C@@]1(Cc2ccc(OC)cc2)[C@H]2c3cc(C(=O)N4CCCC4)n(CCc4cc5ccccc5[nH]4)c3C[C@H]2CN1C(=O)c1ccccc1",
    "system": "NADPH oxidase 5 (Homo sapiens)",
    "z-score": -3.28
  },
  {
    "compound": "O=C1C[C@]2(c3ccc([N+](=O)[O-])cc3)C(=O)N(Cc3ccccc3)c3cc(CO)ccc3[C@H]2N1CC12CC3CC(CC(C3)C1)C2",
    "system": "NADPH oxidase 5 (Homo sapiens)",
    "z-score": 0.664
  },
  {
    "compound": "CCOC(=O)[C@@H]1[C@@H]2C(=O)N(CC)C(=O)[C@@H]2C[C@@H]1Sc1ccccc1",
    "system": "NADPH oxidase 5 (Homo sapiens)",
    "z-score": -0.796
  },
  {
    "compound": "CN(C)C(=O)[C@]1(CCC(=O)OC(C)(C)C)N=C(c2ccc(OCCCO)cc2)O[C@@H]1c1ccccc1",
    "system": "NADPH oxidase 5 (Homo sapiens)",
    "z-score": -0.229
  },
  {
    "compound": "C=CCOC(=O)[C@@H]1[C@H]2C(=O)O[C@H](c3ccccc3)[C@H](c3ccccc3)N2[C@H](c2ccc(OCCOC(=O)[C@H]3C[C@H]4C(=O)N[C@@H](CCCCNC(C)=O)C(=O)N4[C@H]3c3cccc(OCCO)c3)cc2)[C@@]12C(=O)Nc1ccc(I)cc12",
    "system": "NADPH oxidase 5 (Homo sapiens)",
    "z-score": 1.86
  },
  {
    "compound": "CN1C(=O)C2C=CC(C(O)C3CCCCC3)N(N3CCCCC3)C2C1=O (centres undefined)",
    "system": "NADPH oxidase 5 (Homo sapiens)",
    "z-score": -0.23
  },
  {
    "compound": "CC(C)N1CC=CC23O[C@@H]4C=CCOC(=O)[C@@H]4[C@H]2C(=O)N(C(C)CO)[C@@H]3C1=O (some centres undefined)",
    "system": "NADPH oxidase 5 (Homo sapiens)",
    "z-score": 0.393
  },
  {
    "compound": "O=C1OCC=C[C@H]2OC34C=CCN(c5ccc(Cl)cc5)C(=O)[C@H]3N(CCCCCO)C(=O)[C@@H]4[C@@H]12 (some centres undefined)",
    "system": "NADPH oxidase 5 (Homo sapiens)",
    "z-score": 2.87
  },
  {
    "compound": "COC(=O)[C@]1(CCS(=O)(=O)c2ccccc2)N=C(c2ccc(OCCCO)cc2)O[C@@H]1c1ccccc1CN=[N+]=[N-]",
    "system": "NADPH oxidase 5 (Homo sapiens)",
    "z-score": -3.08
  },
  {
    "compound": "O=C1O[C@@H](c2ccccc2)[C@@H](c2ccccc2)N2[C@@H](c3ccc(O)cc3)[C@]3(C(=O)Nc4ccc(C#CCCO)cc43)[C@@H](C(=O)NC[C@H](O)c3ccccc3)[C@H]12",
    "system": "NADPH oxidase 5 (Homo sapiens)",
    "z-score": -0.159
  },
  {
    "compound": "C=C[C@H](COC(C)=O)NS(=O)(=O)c1ccc(Br)cc1",
    "system": "NADPH oxidase 5 (Homo sapiens)",
    "z-score": 0.0573
  },
  {
    "compound": "COc1cc(OC)c(C(O)C2C=CC3C(=O)N(c4ccccc4)C(=O)C3N2Nc2ccc(C#N)cc2)cc1Br (centres undefined)",
    "system": "NADPH oxidase 5 (Homo sapiens)",
    "z-score": -2.08
  },
  {
    "compound": "C=C(/C(=C/C[C@@H](OC(=O)c1ccncc1)c1ccccc1OCCO)c1cc(C(=O)OC)ccc1OC)C(C)C",
    "system": "NADPH oxidase 5 (Homo sapiens)",
    "z-score": -1.63
  },
  {
    "compound": "Cc1ccc(S[C@]2(C(=O)NC(C)C)CC(=O)N(Cc3ccccc3C(F)(F)F)[C@@H]2c2ccc(CO)cc2I)cc1",
    "system": "NADPH oxidase 5 (Homo sapiens)",
    "z-score": -1.78
  },
  {
    "compound": "COC1(C)CN(Cc2ccccc2Br)[C@H](/C=C/c2ccccc2)[C@H](Cc2ccccc2)O1 (some centres undefined)",
    "system": "NADPH oxidase 5 (Homo sapiens)",
    "z-score": -0.271
  },
  {
    "compound": "C=CCOC(=O)[C@@H]1[C@H]2C(=O)O[C@H](c3ccccc3)[C@H](c3ccccc3)N2[C@H](c2ccc(OCCOC(=O)[C@H]3C[C@H]4C(=O)N[C@@H](CC(C)C)C(=O)N4[C@H]3c3ccc(O)cc3)cc2)[C@@]12C(=O)Nc1ccc(I)cc12",
    "system": "NADPH oxidase 5 (Homo sapiens)",
    "z-score": 1.36
  },
  {
    "compound": "CC1CC/C=C\\[C@H]2OC34C=CCN(CCN5CCOCC5)C(=O)[C@H]3N(CCO)C(=O)[C@@H]4C2C(=O)O1 (some centres undefined)",
    "system": "NADPH oxidase 5 (Homo sapiens)",
    "z-score": 2.07
  },
  {
    "compound": "CCOC(=O)C1=CC[C@@H](c2ccccc2)N(S(=O)(=O)c2ccc(C)cc2)C1",
    "system": "NADPH oxidase 5 (Homo sapiens)",
    "z-score": -1.63
  },
  {
    "compound": "CC(CO)N1C(=O)[C@@H]2C3C(=O)OCCC/C=C\\[C@H]3OC23C=CCN(Cn2nnc4ccccc42)C(=O)[C@@H]13 (some centres undefined)",
    "system": "NADPH oxidase 5 (Homo sapiens)",
    "z-score": 2.03
  },
  {
    "compound": "O=C1NC(=O)C2C1C=CC(C(O)c1c(F)cccc1Cl)N2Nc1ccccn1 (centres undefined)",
    "system": "NADPH oxidase 5 (Homo sapiens)",
    "z-score": -2.23
  },
  {
    "compound": "Cc1c(NC(=O)/C(C#N)=C/C=C/c2ccccc2[N+](=O)[O-])c(=O)n(-c2ccccc2)n1C",
    "system": "NADPH oxidase 5 (Homo sapiens)",
    "z-score": 0.657
  },
  {
    "compound": "COCCCNC(=O)[C@@]1(Sc2ccc(C)cc2)CC(=O)N(C2Cc3ccccc3C2)[C@@H]1c1ccc(CO)cc1I",
    "system": "NADPH oxidase 5 (Homo sapiens)",
    "z-score": 1.23
  },
  {
    "compound": "CCOC(=O)C[C@H]1[C@H](OC(=O)c2ccc(-c3ccccc3)cc2)[C@@H](NC(=O)c2ccc3ccccc3n2)c2cc(OCCCO)ccc2N1C(=O)c1ccccc1",
    "system": "NADPH oxidase 5 (Homo sapiens)",
    "z-score": -1.04
  }
]
